B1: Gamma-crystallin C, residues 91 to 170; numbered along this chain, P07315 (parent)
chain: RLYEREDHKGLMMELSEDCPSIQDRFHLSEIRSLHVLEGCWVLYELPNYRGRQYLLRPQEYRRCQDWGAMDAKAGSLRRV

Variants of: B1
Assay: abundance fitness (aPCA) (normalised: wild type 0, dead -1); higher = more abundant; growth selection in yeast, the domain comes from the species named
Settings: Homo sapiens
# cutoff -0.4 applies to abundance fitness; >= gives true (1), < gives false (0)

Assess whether reported abundance fitness for G51T sits at -0.4 or higher.
false (0)

Assess whether reported abundance fitness for E45S sits at -0.4 or higher.
true (1)

Assess whether reported abundance fitness for Q53A sits at -0.4 or higher.
true (1)

Assess whether reported abundance fitness for L28S sits at -0.4 or higher.
true (1)

Assess whether reported abundance fitness for Y61A sits at -0.4 or higher.
false (0)

Assess whether reported abundance fitness for Q65N sits at -0.4 or higher.
true (1)

Assess whether reported abundance fitness for Y49N sits at -0.4 or higher.
true (1)

Assess whether reported abundance fitness for R57E sits at -0.4 or higher.
true (1)

Assess whether reported abundance fitness for L28T sits at -0.4 or higher.
false (0)

Assess whether reported abundance fitness for E14D sits at -0.4 or higher.
false (0)

Assess whether reported abundance fitness for M70V sits at -0.4 or higher.
true (1)

Assess whether reported abundance fitness for M13L sits at -0.4 or higher.
true (1)

Assess whether reported abundance fitness for L15V sits at -0.4 or higher.
true (1)

Assess whether reported abundance fitness for D71R sits at -0.4 or higher.
true (1)

Assess whether reported abundance fitness for E45N sits at -0.4 or higher.
false (0)

Assess whether reported abundance fitness for L15D sits at -0.4 or higher.
false (0)

Assess whether reported abundance fitness for G75R sits at -0.4 or higher.
false (0)

Assess whether reported abundance fitness for G51W sits at -0.4 or higher.
true (1)

Assess whether reported abundance fitness for P20C sits at -0.4 or higher.
true (1)

Assess whether reported abundance fitness for L56A sits at -0.4 or higher.
false (0)

Assess whether reported abundance fitness for D71L sits at -0.4 or higher.
false (0)

Assess whether reported abundance fitness for P58H sits at -0.4 or higher.
false (0)

Assess whether reported abundance fitness for H35V sits at -0.4 or higher.
true (1)

Assess whether reported abundance fitness for Q59S sits at -0.4 or higher.
true (1)

Assess whether reported abundance fitness for D66E sits at -0.4 or higher.
true (1)

Assess whether reported abundance fitness for E30K sits at -0.4 or higher.
true (1)

Assess whether reported abundance fitness for D71K sits at -0.4 or higher.
true (1)

Assess whether reported abundance fitness for Y44G sits at -0.4 or higher.
false (0)

Assess whether reported abundance fitness for Q65E sits at -0.4 or higher.
true (1)

Assess whether reported abundance fitness for S21K sits at -0.4 or higher.
false (0)

Assess whether reported abundance fitness for I22P sits at -0.4 or higher.
false (0)

Assess whether reported abundance fitness for Q23A sits at -0.4 or higher.
true (1)

Assess whether reported abundance fitness for R50V sits at -0.4 or higher.
true (1)

Assess whether reported abundance fitness for G39A sits at -0.4 or higher.
false (0)

Assess whether reported abundance fitness for L55C sits at -0.4 or higher.
true (1)

Assess whether reported abundance fitness for P47Q sits at -0.4 or higher.
true (1)

Assess whether reported abundance fitness for L43Q sits at -0.4 or higher.
false (0)

Assess whether reported abundance fitness for R50G sits at -0.4 or higher.
true (1)

Assess whether reported abundance fitness for R5H sits at -0.4 or higher.
true (1)

Assess whether reported abundance fitness for Y61C sits at -0.4 or higher.
false (0)

Assess whether reported abundance fitness for R52D sits at -0.4 or higher.
true (1)

Assess whether reported abundance fitness for E60H sits at -0.4 or higher.
true (1)

Assess whether reported abundance fitness for E38N sits at -0.4 or higher.
true (1)

Assess whether reported abundance fitness for K9G sits at -0.4 or higher.
true (1)

Assess whether reported abundance fitness for E4A sits at -0.4 or higher.
true (1)

Assess whether reported abundance fitness for D66R sits at -0.4 or higher.
false (0)

Assess whether reported abundance fitness for D7P sits at -0.4 or higher.
false (0)

Assess whether reported abundance fitness for R63P sits at -0.4 or higher.
false (0)

Assess whether reported abundance fitness for E38P sits at -0.4 or higher.
false (0)

Assess whether reported abundance fitness for L11C sits at -0.4 or higher.
true (1)

Assess whether reported abundance fitness for L56P sits at -0.4 or higher.
false (0)

Assess whether reported abundance fitness for L37E sits at -0.4 or higher.
false (0)

Assess whether reported abundance fitness for Y3P sits at -0.4 or higher.
false (0)

Assess whether reported abundance fitness for G39V sits at -0.4 or higher.
false (0)

Assess whether reported abundance fitness for E60D sits at -0.4 or higher.
true (1)

Assess whether reported abundance fitness for G75P sits at -0.4 or higher.
false (0)

Assess whether reported abundance fitness for A69Q sits at -0.4 or higher.
true (1)

Assess whether reported abundance fitness for G51L sits at -0.4 or higher.
false (0)

Assess whether reported abundance fitness for M13C sits at -0.4 or higher.
true (1)

Assess whether reported abundance fitness for E6L sits at -0.4 or higher.
false (0)

Assess whether reported abundance fitness for S33W sits at -0.4 or higher.
false (0)

Assess whether reported abundance fitness for N48S sits at -0.4 or higher.
true (1)

Assess whether reported abundance fitness for K73F sits at -0.4 or higher.
true (1)

Assess whether reported abundance fitness for S29A sits at -0.4 or higher.
true (1)

Assess whether reported abundance fitness for Q59W sits at -0.4 or higher.
false (0)

Assess whether reported abundance fitness for L28H sits at -0.4 or higher.
false (0)

Assess whether reported abundance fitness for A74L sits at -0.4 or higher.
false (0)

Assess whether reported abundance fitness for E17A sits at -0.4 or higher.
true (1)

Assess whether reported abundance fitness for M13E sits at -0.4 or higher.
true (1)

Assess whether reported abundance fitness for R50S sits at -0.4 or higher.
true (1)

Assess whether reported abundance fitness for C40P sits at -0.4 or higher.
false (0)

Assess whether reported abundance fitness for A69S sits at -0.4 or higher.
true (1)
